assay_summary: Aqueous solubility of roxithromycin (pH, buffer, ethanol)
Type: physicochemical
experimental_context: phosphate buffer with ethanol co-solvent, 25 °C, pH 6, aqueous with cosolvent or surfactant or cyclodextrin, thermodynamic from solid, pH 6, 20 mM phosphate, 5% ethanol
assay_readout: solubility at 24 h (µg/mL)
Give bare numbers, in µg/mL.

Problem: Requested read-out: solubility at 24 h. Entry: CC[C@H]1OC(=O)[C@H](C)[C@@H](O[C@H]2C[C@@](C)(OC)[C@@H](O)[C@H](C)O2)[C@H](C)[C@@H](O[C@@H]2O[C@H](C)C[C@H](N(C)C)[C@H]2O)[C@](C)(O)C[C@@H](C)/C(=N\OCOCCOC)[C@H](C)[C@@H](O)[C@]1(C)O [roxithromycin]
Result: 4600

###

assay_summary: Aqueous solubility of roxithromycin (pH, buffer, ethanol)
Assay type: physicochemical
experimental_context: phosphate buffer, 25 °C, pH 7, aqueous buffer, thermodynamic from solid, pH 7, 50 mM phosphate, 0% ethanol
assay_readout: solubility at 24 h (µg/mL)
One number for each entry, in µg/mL.

Problem: Requested read-out: solubility at 24 h. Entry: CC[C@H]1OC(=O)[C@H](C)[C@@H](O[C@H]2C[C@@](C)(OC)[C@@H](O)[C@H](C)O2)[C@H](C)[C@@H](O[C@@H]2O[C@H](C)C[C@H](N(C)C)[C@H]2O)[C@](C)(O)C[C@@H](C)/C(=N\OCOCCOC)[C@H](C)[C@@H](O)[C@]1(C)O
Result: 2000

###

assay_summary: Aqueous solubility of roxithromycin (pH, buffer, ethanol)
Type: physicochemical
experimental_context: phosphate buffer with ethanol co-solvent, 25 °C, pH 6, aqueous with cosolvent or surfactant or cyclodextrin, thermodynamic from solid, pH 6, 50 mM phosphate, 10% ethanol
assay_readout: solubility at 24 h
Provide a numeric answer, followed by its unit.

Problem: Requested read-out: solubility at 24 h. Entry: CC[C@H]1OC(=O)[C@H](C)[C@@H](O[C@H]2C[C@@](C)(OC)[C@@H](O)[C@H](C)O2)[C@H](C)[C@@H](O[C@@H]2O[C@H](C)C[C@H](N(C)C)[C@H]2O)[C@](C)(O)C[C@@H](C)/C(=N\OCOCCOC)[C@H](C)[C@@H](O)[C@]1(C)O
Result: 9300 µg/mL

###

assay_summary: Aqueous solubility of roxithromycin (pH, buffer, ethanol)
Assay type: physicochemical
experimental_context: phosphate buffer with ethanol co-solvent, 25 °C, pH 7, aqueous with cosolvent or surfactant or cyclodextrin, thermodynamic from solid, pH 7, 20 mM phosphate, 5% ethanol
assay_readout: solubility at 24 h (µg/mL)
Numbers only, in µg/mL.

Problem: Requested read-out: solubility at 24 h. Entry: CC[C@H]1OC(=O)[C@H](C)[C@@H](O[C@H]2C[C@@](C)(OC)[C@@H](O)[C@H](C)O2)[C@H](C)[C@@H](O[C@@H]2O[C@H](C)C[C@H](N(C)C)[C@H]2O)[C@](C)(O)C[C@@H](C)/C(=N\OCOCCOC)[C@H](C)[C@@H](O)[C@]1(C)O
Result: 1700

###

assay_summary: Aqueous solubility of roxithromycin (pH, buffer, ethanol)
Format: physicochemical
experimental_context: citrate buffer, 25 °C, pH 5, aqueous buffer, thermodynamic from solid, 50 mM citrate, pH 5
assay_readout: solubility at 24 h (µg/mL)
Give bare numbers, in µg/mL.

Problem: Requested read-out: solubility at 24 h. Entry: CC[C@H]1OC(=O)[C@H](C)[C@@H](O[C@H]2C[C@@](C)(OC)[C@@H](O)[C@H](C)O2)[C@H](C)[C@@H](O[C@@H]2O[C@H](C)C[C@H](N(C)C)[C@H]2O)[C@](C)(O)C[C@@H](C)/C(=N\OCOCCOC)[C@H](C)[C@@H](O)[C@]1(C)O [roxithromycin]
Result: 3570

###

assay_summary: Aqueous solubility of roxithromycin (pH, buffer, ethanol)
Format: physicochemical
experimental_context: phosphate buffer, 25 °C, pH 6, aqueous buffer, thermodynamic from solid, pH 6, 10 mM phosphate, 0% ethanol
assay_readout: solubility at 24 h
Provide a numeric answer, followed by its unit.

Problem: Requested read-out: solubility at 24 h. Entry: CC[C@H]1OC(=O)[C@H](C)[C@@H](O[C@H]2C[C@@](C)(OC)[C@@H](O)[C@H](C)O2)[C@H](C)[C@@H](O[C@@H]2O[C@H](C)C[C@H](N(C)C)[C@H]2O)[C@](C)(O)C[C@@H](C)/C(=N\OCOCCOC)[C@H](C)[C@@H](O)[C@]1(C)O
Result: 2800 µg/mL

###

assay_summary: Aqueous solubility of roxithromycin (pH, buffer, ethanol)
Type: physicochemical
experimental_context: citrate buffer, 25 °C, pH 5, aqueous buffer, thermodynamic from solid, 200 mM citrate, pH 5
assay_readout: solubility at 24 h

Problem: Requested read-out: solubility at 24 h. Entry: CC[C@H]1OC(=O)[C@H](C)[C@@H](O[C@H]2C[C@@](C)(OC)[C@@H](O)[C@H](C)O2)[C@H](C)[C@@H](O[C@@H]2O[C@H](C)C[C@H](N(C)C)[C@H]2O)[C@](C)(O)C[C@@H](C)/C(=N\OCOCCOC)[C@H](C)[C@@H](O)[C@]1(C)O [roxithromycin]
Result: 1900 µg/mL

###

assay_summary: Aqueous solubility of roxithromycin (pH, buffer, ethanol)
Format: physicochemical
experimental_context: phosphate buffer with ethanol co-solvent, 25 °C, pH 5, aqueous with cosolvent or surfactant or cyclodextrin, thermodynamic from solid, pH 5, 10 mM phosphate, 10% ethanol
assay_readout: solubility at 24 h (µg/mL)
One number for each entry, in µg/mL.

Problem: Requested read-out: solubility at 24 h. Entry: CC[C@H]1OC(=O)[C@H](C)[C@@H](O[C@H]2C[C@@](C)(OC)[C@@H](O)[C@H](C)O2)[C@H](C)[C@@H](O[C@@H]2O[C@H](C)C[C@H](N(C)C)[C@H]2O)[C@](C)(O)C[C@@H](C)/C(=N\OCOCCOC)[C@H](C)[C@@H](O)[C@]1(C)O [roxithromycin]
Result: 3800

###

assay_summary: Aqueous solubility of roxithromycin (pH, buffer, ethanol)
Assay type: physicochemical
experimental_context: citrate buffer, 25 °C, pH 4, aqueous buffer, thermodynamic from solid, 20 mM citrate, pH 4
assay_readout: solubility at 24 h (µg/mL)
Answers are plain numbers, in µg/mL.

Problem: Requested read-out: solubility at 24 h. Entry: CC[C@H]1OC(=O)[C@H](C)[C@@H](O[C@H]2C[C@@](C)(OC)[C@@H](O)[C@H](C)O2)[C@H](C)[C@@H](O[C@@H]2O[C@H](C)C[C@H](N(C)C)[C@H]2O)[C@](C)(O)C[C@@H](C)/C(=N\OCOCCOC)[C@H](C)[C@@H](O)[C@]1(C)O
Result: 4130

###

assay_summary: Aqueous solubility of roxithromycin (pH, buffer, ethanol)
Type: physicochemical
experimental_context: phosphate buffer, 25 °C, pH 5, aqueous buffer, thermodynamic from solid, pH 5, 20 mM phosphate, 0% ethanol
assay_readout: solubility at 24 h
Provide a numeric answer, followed by its unit.

Problem: Requested read-out: solubility at 24 h. Entry: CC[C@H]1OC(=O)[C@H](C)[C@@H](O[C@H]2C[C@@](C)(OC)[C@@H](O)[C@H](C)O2)[C@H](C)[C@@H](O[C@@H]2O[C@H](C)C[C@H](N(C)C)[C@H]2O)[C@](C)(O)C[C@@H](C)/C(=N\OCOCCOC)[C@H](C)[C@@H](O)[C@]1(C)O
Result: 5200 µg/mL

###

assay_summary: Aqueous solubility of roxithromycin (pH, buffer, ethanol)
Type: physicochemical
experimental_context: citrate buffer, 25 °C, pH 6, aqueous buffer, thermodynamic from solid, 100 mM citrate, pH 6
assay_readout: solubility at 24 h (µg/mL)
One number for each entry, in µg/mL.

Problem: Requested read-out: solubility at 24 h. Entry: CC[C@H]1OC(=O)[C@H](C)[C@@H](O[C@H]2C[C@@](C)(OC)[C@@H](O)[C@H](C)O2)[C@H](C)[C@@H](O[C@@H]2O[C@H](C)C[C@H](N(C)C)[C@H]2O)[C@](C)(O)C[C@@H](C)/C(=N\OCOCCOC)[C@H](C)[C@@H](O)[C@]1(C)O
Result: 2300

###

assay_summary: Aqueous solubility of roxithromycin (pH, buffer, ethanol)
Format: physicochemical
experimental_context: phosphate buffer with ethanol co-solvent, 25 °C, pH 6, aqueous with cosolvent or surfactant or cyclodextrin, thermodynamic from solid, pH 6, 10 mM phosphate, 10% ethanol
assay_readout: solubility at 24 h (µg/mL)
Give bare numbers, in µg/mL.

Problem: Requested read-out: solubility at 24 h. Entry: CC[C@H]1OC(=O)[C@H](C)[C@@H](O[C@H]2C[C@@](C)(OC)[C@@H](O)[C@H](C)O2)[C@H](C)[C@@H](O[C@@H]2O[C@H](C)C[C@H](N(C)C)[C@H]2O)[C@](C)(O)C[C@@H](C)/C(=N\OCOCCOC)[C@H](C)[C@@H](O)[C@]1(C)O [roxithromycin]
Result: 3900
